test: Solubility of Compound 2 by manual dilution combined with visual observation; assay type: physicochemical; settings: organic solvent or mixture, thermodynamic from solid; Acetone, room temperature
OBSERVATION_TYPE: solubility

Kindly indicate its recorded solubility. Item: C=CC(=O)Nc1cccc(Nc2nc(Nc3ccc(OCCOC)cc3)ncc2F)c1.O=S(=O)(O)c1ccccc1
~2500 µg/mL

----------
experiment: Solubility of Compound 2 by manual dilution combined with visual observation; format: physicochemical; conditions: organic solvent or mixture, thermodynamic from solid; Benzyl alcohol, room temperature
OBSERVATION_TYPE: solubility

Identify the reported solubility for the following entry. C=CC(=O)Nc1cccc(Nc2nc(Nc3ccc(OCCOC)cc3)ncc2F)c1.O=S(=O)(O)c1ccccc1
97 to 194 mg/mL
